assay: PK study in non-human primates, single sc dose 5 nmol/kg, plasma ELISA; settings: read-out: Cmax (nmol/L); monkey, single sc dose 5 nmol/kg

molecule: MLC089: fusion polypeptide SEQ ID NO: 379 conjugated with Moiety B at 39C of Linker (conjugate, Moiety B conjugated at linker Cys39) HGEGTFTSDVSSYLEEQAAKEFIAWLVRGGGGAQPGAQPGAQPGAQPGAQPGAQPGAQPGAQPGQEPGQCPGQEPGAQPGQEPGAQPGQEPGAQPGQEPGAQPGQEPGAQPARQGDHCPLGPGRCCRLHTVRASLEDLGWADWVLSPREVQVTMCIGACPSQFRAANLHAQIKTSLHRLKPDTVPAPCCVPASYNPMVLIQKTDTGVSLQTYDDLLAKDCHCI
Cmax: 70.5 nmol/L
